// each record: one item and its pKi for Androgen receptor (Homo sapiens)
By convention, pKi is the negative base-10 log of a molar concentration.

Data request: Value wanted: pKi (Androgen receptor (Homo sapiens)) of entry CC(C)C1CC(C)(C)Nc2cc3nc(O)cc(C(F)(F)F)c3cc21 (stereo unspecified)
Data returned: 6.19

Data request: Value wanted: pKi (Androgen receptor (Homo sapiens)) of entry CC1Cc2cc3c(C(F)(F)F)cc(=O)[nH]c3cc2NC1(C)C (stereo unspecified)
Data returned: 7.14

Data request: Value wanted: pKi (Androgen receptor (Homo sapiens)) of entry CC1=CC(C)(C)N(C)c2cc3c(cc21)c(C(F)(F)F)cc(=O)n3C
Data returned: 7.41

Data request: Value wanted: pKi (Androgen receptor (Homo sapiens)) of entry CC1=CC(C)(C)Nc2c1cc1c(C(F)(F)F)cc(=O)n(C)c1c2C
Data returned: 6.06

Data request: Value wanted: pKi (Androgen receptor (Homo sapiens)) of entry CC1(C)C=Cc2cc3c(C(F)(F)F)cc(O)nc3cc2N1
Data returned: 7.07

Data request: Value wanted: pKi (Androgen receptor (Homo sapiens)) of entry CCC1(C)CCc2cc3c(C(F)(F)F)cc(=O)n(C)c3cc2N1C (stereo unspecified)
Data returned: 8.00

Data request: Value wanted: pKi (Androgen receptor (Homo sapiens)) of entry Cc1c2c(cc3c(C(F)(F)F)cc(=O)[nH]c13)C(C)CC(C)(C)N2 (stereo unspecified)
Data returned: 7.07

Data request: Value wanted: pKi (Androgen receptor (Homo sapiens)) of entry CCn1c(=O)cc(C(F)(F)F)c2cc3c(cc21)NC(C)(C)C=C3C
Data returned: 6.17

Data request: Value wanted: pKi (Androgen receptor (Homo sapiens)) of entry CCC1(C)CCc2cc3c(C(F)(F)F)cc(=O)n(C)c3cc2N1 (stereo unspecified)
Data returned: 7.16

Data request: Value wanted: pKi (Androgen receptor (Homo sapiens)) of entry CCC1(CC)CCc2cc3c(C(F)(F)F)cc(O)nc3cc2N1
Data returned: 6.99

Data request: Value wanted: pKi (Androgen receptor (Homo sapiens)) of entry CC1(C)Cc2cc3c(C(F)(F)F)cc(=O)[nH]c3cc2NC1(C)C
Data returned: 6.72

* * *

Molecular target: Progesterone receptor (Homo sapiens, UniProt P06401)
Sequence (P06401 whole entry): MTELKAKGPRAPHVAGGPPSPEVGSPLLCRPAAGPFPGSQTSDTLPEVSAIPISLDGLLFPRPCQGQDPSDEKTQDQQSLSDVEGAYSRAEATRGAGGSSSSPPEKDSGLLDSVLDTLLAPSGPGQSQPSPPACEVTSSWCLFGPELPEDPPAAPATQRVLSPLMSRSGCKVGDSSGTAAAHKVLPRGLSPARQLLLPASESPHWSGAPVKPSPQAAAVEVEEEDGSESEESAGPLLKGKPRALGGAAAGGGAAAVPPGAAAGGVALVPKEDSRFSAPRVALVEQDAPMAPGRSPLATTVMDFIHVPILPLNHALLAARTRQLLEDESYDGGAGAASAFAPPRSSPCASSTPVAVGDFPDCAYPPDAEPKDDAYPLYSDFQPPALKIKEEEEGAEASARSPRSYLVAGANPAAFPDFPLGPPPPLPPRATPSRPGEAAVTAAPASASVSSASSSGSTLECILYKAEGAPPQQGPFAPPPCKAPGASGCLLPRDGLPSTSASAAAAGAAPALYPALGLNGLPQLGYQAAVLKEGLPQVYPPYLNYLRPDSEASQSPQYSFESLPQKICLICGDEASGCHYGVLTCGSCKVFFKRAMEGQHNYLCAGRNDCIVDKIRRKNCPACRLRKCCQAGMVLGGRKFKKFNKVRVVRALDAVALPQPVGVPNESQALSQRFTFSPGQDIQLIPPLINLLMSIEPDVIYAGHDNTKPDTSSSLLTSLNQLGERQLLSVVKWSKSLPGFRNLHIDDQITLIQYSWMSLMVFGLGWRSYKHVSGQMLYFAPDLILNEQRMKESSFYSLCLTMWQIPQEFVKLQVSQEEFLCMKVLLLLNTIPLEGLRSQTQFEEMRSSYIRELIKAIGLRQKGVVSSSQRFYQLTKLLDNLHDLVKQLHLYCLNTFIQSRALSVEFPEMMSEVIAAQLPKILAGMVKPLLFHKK
Assay: Antagonistic activity against human progesterone receptor B (hPR-B) in co-transfected CV-1 cells.
pIC50: −log10 of the molar value.
Label True when pIC50 >= 6; otherwise False.

Data request: Decide: pIC50 of Oc1cc(C(F)(F)F)c2cc3c(cc2n1)NC1(CCCCC1)CC3 >= 6?
Data returned: False

Data request: Decide: pIC50 of CC1(C)CCc2cc3c(C(F)(F)F)cc(=O)[nH]c3cc2N1 >= 6?
Data returned: True

Data request: Decide: pIC50 of CC1=CC(C)(C)N(C)c2cc3nc(O)cc(C(F)(F)F)c3cc21 >= 6?
Data returned: False

Data request: Decide: pIC50 of CCC1(CC)CCc2cc3c(C(F)(F)F)cc(O)nc3cc2N1 >= 6?
Data returned: False

Data request: Decide: pIC50 of CC1=CC(C)(C)Nc2cc3c(cc21)c(C(F)(F)F)cc(=O)n3C >= 6?
Data returned: True

Data request: Decide: pIC50 of CC1CC(C)(C)Nc2cc3nc(O)cc(C(F)(F)F)c3cc21 (stereo not given) >= 6?
Data returned: True

Data request: Decide: pIC50 of CC(O)(CS(=O)(=O)c1ccc(F)cc1)C(=O)Nc1ccc(C#N)c(C(F)(F)F)c1 (stereo not given) [BICALUTAMIDE] >= 6?
Data returned: False

Data request: Decide: pIC50 of CCn1c(=O)cc(C(F)(F)F)c2cc3c(cc21)NC(C)(C)C=C3C >= 6?
Data returned: False

Data request: Decide: pIC50 of Cc1c2c(cc3c(C(F)(F)F)cc(=O)n(C)c13)C(C)CC(C)(C)N2 (stereo not given) >= 6?
Data returned: False

* * *

biological target: Progesterone receptor (Homo sapiens); experiment: Efficacy as a function of maximal inhibition against human progesterone receptor B (hPR-B).
Label TRUE when Efficacy >= 60%; otherwise FALSE.

Data request: Decide: Efficacy of CC1=CC(C)(C)Nc2c1cc1c(C(F)(F)F)cc(=O)n(C)c1c2C >= 60%?
Data returned: TRUE

Data request: Decide: Efficacy of Cn1c(=O)cc(C(F)(F)F)c2cc3c(cc21)NC(C)(C)CC3 >= 60%?
Data returned: TRUE

Data request: Decide: Efficacy of CC1=CC(C)(C)N(C)c2cc3nc(O)cc(C(F)(F)F)c3cc21 >= 60%?
Data returned: FALSE

Data request: Decide: Efficacy of CC1=CC(C)(C)Nc2c1cc1c(C(F)(F)F)cc(O)nc1c2C >= 60%?
Data returned: TRUE

Data request: Decide: Efficacy of CC1CC(C)(C)Nc2cc3c(cc21)c(C(F)(F)F)cc(=O)n3C (stereo unspecified) >= 60%?
Data returned: TRUE

* * *

Molecular target: UniProtKB P06401
Sequence (whole entry): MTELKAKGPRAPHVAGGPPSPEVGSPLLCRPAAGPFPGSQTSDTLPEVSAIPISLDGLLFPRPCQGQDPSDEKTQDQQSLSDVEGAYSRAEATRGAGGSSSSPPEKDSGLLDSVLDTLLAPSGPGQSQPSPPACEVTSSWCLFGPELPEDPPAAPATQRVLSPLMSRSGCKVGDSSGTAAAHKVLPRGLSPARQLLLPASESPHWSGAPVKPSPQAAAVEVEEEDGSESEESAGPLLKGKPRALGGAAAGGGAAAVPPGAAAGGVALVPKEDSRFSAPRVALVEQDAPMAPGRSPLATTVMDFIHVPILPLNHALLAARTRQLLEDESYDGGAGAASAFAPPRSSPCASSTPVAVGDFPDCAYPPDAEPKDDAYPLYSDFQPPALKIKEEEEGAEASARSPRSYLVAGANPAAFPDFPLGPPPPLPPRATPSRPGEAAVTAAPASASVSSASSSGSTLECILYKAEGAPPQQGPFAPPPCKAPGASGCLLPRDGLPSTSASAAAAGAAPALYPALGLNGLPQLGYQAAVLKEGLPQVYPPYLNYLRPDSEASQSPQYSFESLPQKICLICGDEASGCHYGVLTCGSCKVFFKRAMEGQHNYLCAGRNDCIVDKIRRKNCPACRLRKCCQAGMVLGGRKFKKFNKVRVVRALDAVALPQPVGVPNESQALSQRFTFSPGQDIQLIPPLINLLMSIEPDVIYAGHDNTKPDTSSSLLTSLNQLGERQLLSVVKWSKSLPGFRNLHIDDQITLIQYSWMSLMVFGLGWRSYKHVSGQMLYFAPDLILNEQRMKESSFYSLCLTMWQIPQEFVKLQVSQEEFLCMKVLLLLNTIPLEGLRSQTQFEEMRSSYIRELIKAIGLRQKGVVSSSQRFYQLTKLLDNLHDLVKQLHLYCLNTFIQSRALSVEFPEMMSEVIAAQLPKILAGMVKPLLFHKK
Experiment: Efficacy as a function of maximal inhibition against human progesterone receptor B (hPR-B).
Label 1 when Efficacy >= 70%; otherwise -1.

Data request: Decide: Efficacy of Cc1c2c(cc3c(C(F)(F)F)cc(=O)n(C)c13)C(C)CC(C)(C)N2 (stereo unspecified) >= 70%?
Data returned: 1

Data request: Decide: Efficacy of CCC1(C)CCc2cc3c(C(F)(F)F)cc(=O)n(C)c3cc2N1 (stereo unspecified) >= 70%?
Data returned: 1

Data request: Decide: Efficacy of CCn1c(=O)cc(C(F)(F)F)c2cc3c(cc21)NC(C)(C)C=C3C >= 70%?
Data returned: -1

Data request: Decide: Efficacy of C[C@@H]1c2cc3c(C(F)(F)F)cc(O)nc3cc2NC(C)(C)[C@H]1C >= 70%?
Data returned: 1

Data request: Decide: Efficacy of CC1=C(C)C(C)(C)Nc2cc3nc(O)cc(C(F)(F)F)c3cc21 >= 70%?
Data returned: -1

Data request: Decide: Efficacy of CC(=O)O[C@]1(C(C)=O)CC[C@H]2[C@@H]3C=C(Cl)C4=CC(=O)[C@@H]5C[C@@H]5[C@]4(C)[C@H]3CC[C@@]21C >= 70%?
Data returned: -1
